# System Under Test: Porcine DPP-IV (Sus scrofa)
# Construct: purchased Sigma-Aldrich Germany
# Sequence (P22411 whole entry): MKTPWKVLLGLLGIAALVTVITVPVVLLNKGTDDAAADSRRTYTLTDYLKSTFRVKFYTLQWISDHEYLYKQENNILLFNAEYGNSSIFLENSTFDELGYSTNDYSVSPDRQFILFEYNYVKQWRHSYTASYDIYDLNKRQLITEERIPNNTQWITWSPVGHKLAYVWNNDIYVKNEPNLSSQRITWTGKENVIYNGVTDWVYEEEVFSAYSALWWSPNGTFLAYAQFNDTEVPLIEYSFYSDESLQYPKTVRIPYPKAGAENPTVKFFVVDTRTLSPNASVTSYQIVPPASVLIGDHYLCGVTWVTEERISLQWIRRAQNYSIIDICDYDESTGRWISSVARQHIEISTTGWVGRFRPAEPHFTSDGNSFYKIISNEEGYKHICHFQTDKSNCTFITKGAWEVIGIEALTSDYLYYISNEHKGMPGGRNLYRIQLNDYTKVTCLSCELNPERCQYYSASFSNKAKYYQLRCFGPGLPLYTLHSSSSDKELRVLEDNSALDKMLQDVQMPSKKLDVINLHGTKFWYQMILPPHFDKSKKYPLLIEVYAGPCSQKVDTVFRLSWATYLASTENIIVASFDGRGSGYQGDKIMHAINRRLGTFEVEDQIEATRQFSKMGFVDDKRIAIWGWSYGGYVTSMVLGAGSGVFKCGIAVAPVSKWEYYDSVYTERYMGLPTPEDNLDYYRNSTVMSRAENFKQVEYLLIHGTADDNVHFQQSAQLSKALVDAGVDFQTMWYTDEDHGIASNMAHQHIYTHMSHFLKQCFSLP
# Protocol Notes: Assay of DPP-IV enzyme inhibitory activity (spectrophotometric, Gly-Pro-pNA cleavage)
# Type: biochemical
# Assay Context: Porcine DPP-IV, Gly-Pro-pNA substrate, 30° C.; mean ± SD of three experiments except compound Nos. 133 & 139; read-out: IC50 (μM) Mean ± SD, inhibitory activity on DPP-IV enzyme activity
Counter-ions that a name gives are not always drawn.
Lab note: anything with IC50 below 6 µM is marked Satisfied; values at 6 µM or higher are marked Not satisfied.

# TODO verify IC50 < 6 µM strictly for this compound: N#CC1CSCN1C(=O)CN(N)C1CCN(CC(=O)Nc2ccc(F)c(Cl)c2)CC1 (centres unmarked) [compound 128]
Satisfied

# TODO verify IC50 < 6 µM strictly for this compound: N#CC1CCCN1C(=O)CNN (centres unmarked) [Compound No. 4]
Not satisfied

# TODO verify IC50 < 6 µM strictly for this compound: COC(=O)NN(CC(=O)N1CSCC1C#N)C1CCN(CC(=O)Nc2ccc(Cl)cn2)CC1 (centres unmarked) [compound 133, trihydrochloride]
Not satisfied

# TODO verify IC50 < 6 µM strictly for this compound: CC(C)(C)C(=O)N1CCC(N(N)CC(=O)N2CSCC2C#N)CC1 (centres unmarked) [Compound No. 76]
Satisfied

# TODO verify IC50 < 6 µM strictly for this compound: CC(C)OCCCNC(=O)CN1CCC(N(N)CC(=O)N2CSCC2C#N)CC1 (centres unmarked) [compound 126]
Satisfied

# TODO verify IC50 < 6 µM strictly for this compound: N#CC1CSCN1C(=O)CN(N)C1CCN(CC(=O)Nc2ccccn2)CC1 (centres unmarked) [compound 136]
Satisfied

# TODO verify IC50 < 6 µM strictly for this compound: COCCNC(=O)CN1CCC(N(N)CC(=O)N2CSCC2C#N)CC1 (centres unmarked) [compound 135]
Satisfied

# TODO verify IC50 < 6 µM strictly for this compound: CC1CCC(N(N)CC(=O)N2CS(=O)(=O)CC2C#N)CC1 (centres unmarked) [Compound No. 67]
Not satisfied

# TODO verify IC50 < 6 µM strictly for this compound: N#CC1CSCN1C(=O)CN(N)C1CCC(NCC(=O)Nc2ccc(Cl)cn2)CC1 (centres unmarked) [Compound No. 111]
Satisfied

# TODO verify IC50 < 6 µM strictly for this compound: N#CC1CCCN1C(=O)C1CNCCN1.O=C(O)C(F)(F)F.O=C(O)C(F)(F)F (centres unmarked) [Compound No. 1, bis-trifluoroacetate]
Not satisfied

# TODO verify IC50 < 6 µM strictly for this compound: N#CC1CSCN1C(=O)CN(N)C1CCN(CC(=O)Nc2nc3ccccc3s2)CC1 (centres unmarked) [compound 138]
Satisfied

# TODO verify IC50 < 6 µM strictly for this compound: CS(=O)(=O)NC1CCC(N(N)CC(=O)N2CSCC2C#N)CC1 (centres unmarked) [Compound No. 78]
Satisfied

# TODO verify IC50 < 6 µM strictly for this compound: CN(CC(=O)N1CSCC1C#N)NC1CCN(S(=O)(=O)c2ccc(Cl)cc2)CC1 (centres unmarked) [Compound No. 71]
Not satisfied

# TODO verify IC50 < 6 µM strictly for this compound: N#CC1CCCN1C(=O)CN(N)c1ccccc1 (centres unmarked) [Compound No. 3]
Not satisfied

# TODO verify IC50 < 6 µM strictly for this compound: N#CC1CSCN1C(=O)CN(N)C1CCCC1.O=C(O)C(F)(F)F (centres unmarked) [Compound No. 19]
Satisfied

# TODO verify IC50 < 6 µM strictly for this compound: N#CC1CSCN1C(=O)CN(N)C1CCN(CC(=O)NC2CC2)CC1 (single isomer, unassigned) [compound 146, dihydrochloride]
Not satisfied
